Record form. Attribute: neutralization IC50. Fill in for each entry.
molecular target: Env of HIV-1 strain 250-4 (HIV-1); assay: cell-based or functional assay

INSERT INTO measurements (binder, measured_value) VALUES
  ('γ46κ11 (antibody, V domains shown) VH: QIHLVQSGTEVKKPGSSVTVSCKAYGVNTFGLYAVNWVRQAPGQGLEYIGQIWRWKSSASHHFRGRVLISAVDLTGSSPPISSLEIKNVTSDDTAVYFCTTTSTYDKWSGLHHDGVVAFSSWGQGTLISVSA VL: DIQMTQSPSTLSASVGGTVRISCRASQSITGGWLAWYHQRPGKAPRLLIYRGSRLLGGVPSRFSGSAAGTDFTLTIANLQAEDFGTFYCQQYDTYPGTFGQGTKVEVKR', '> 15 µg/mL'),
  ('γ20κ18 (antibody, V domains shown) VH: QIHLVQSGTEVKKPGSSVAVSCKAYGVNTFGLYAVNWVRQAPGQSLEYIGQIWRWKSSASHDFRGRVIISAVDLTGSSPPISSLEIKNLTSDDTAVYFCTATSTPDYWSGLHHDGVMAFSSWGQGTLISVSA VL: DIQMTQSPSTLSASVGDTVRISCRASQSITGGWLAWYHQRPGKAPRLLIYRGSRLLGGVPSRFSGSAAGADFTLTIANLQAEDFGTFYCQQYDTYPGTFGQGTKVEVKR', '> 15 µg/mL');

γ3κ18 (antibody, V domains shown) VH: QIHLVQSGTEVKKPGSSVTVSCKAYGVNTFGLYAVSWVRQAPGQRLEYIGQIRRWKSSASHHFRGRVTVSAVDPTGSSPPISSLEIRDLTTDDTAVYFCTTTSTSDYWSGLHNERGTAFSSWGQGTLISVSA VL: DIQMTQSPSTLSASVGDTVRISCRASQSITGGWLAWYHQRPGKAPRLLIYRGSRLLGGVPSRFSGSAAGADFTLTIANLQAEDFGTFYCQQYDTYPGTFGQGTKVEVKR has a reported neutralization IC50 of > 15 µg/mL
